EC50 values by entry
# Target or system: Short transient receptor potential channel 4 (Mus musculus, UniProt Q9QUQ5)
# Sequence (Q9QUQ5 whole entry): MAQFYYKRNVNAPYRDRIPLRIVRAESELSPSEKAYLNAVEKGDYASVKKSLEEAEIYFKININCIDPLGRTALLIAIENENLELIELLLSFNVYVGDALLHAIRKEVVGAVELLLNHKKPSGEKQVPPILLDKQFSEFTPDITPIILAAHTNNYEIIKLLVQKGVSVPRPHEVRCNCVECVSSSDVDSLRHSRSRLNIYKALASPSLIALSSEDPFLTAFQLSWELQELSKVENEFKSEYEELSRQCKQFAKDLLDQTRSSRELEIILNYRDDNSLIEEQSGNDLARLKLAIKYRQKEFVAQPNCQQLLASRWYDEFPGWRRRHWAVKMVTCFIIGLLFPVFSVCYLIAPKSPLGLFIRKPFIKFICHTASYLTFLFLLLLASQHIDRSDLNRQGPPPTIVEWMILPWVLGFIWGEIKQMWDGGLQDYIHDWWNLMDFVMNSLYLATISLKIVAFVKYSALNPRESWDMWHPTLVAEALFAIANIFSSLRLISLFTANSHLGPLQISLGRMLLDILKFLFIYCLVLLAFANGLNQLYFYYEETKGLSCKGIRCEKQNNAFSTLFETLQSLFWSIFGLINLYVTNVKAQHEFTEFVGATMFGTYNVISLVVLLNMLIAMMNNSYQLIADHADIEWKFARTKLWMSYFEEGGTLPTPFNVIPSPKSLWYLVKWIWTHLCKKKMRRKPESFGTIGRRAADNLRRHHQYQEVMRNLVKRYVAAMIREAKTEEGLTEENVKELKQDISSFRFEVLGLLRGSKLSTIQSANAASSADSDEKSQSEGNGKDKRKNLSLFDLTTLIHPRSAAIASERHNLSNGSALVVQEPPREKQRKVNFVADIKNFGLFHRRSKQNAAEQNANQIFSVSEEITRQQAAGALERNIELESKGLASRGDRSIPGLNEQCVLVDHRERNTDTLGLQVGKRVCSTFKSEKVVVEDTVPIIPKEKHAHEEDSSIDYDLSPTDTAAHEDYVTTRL
# Assay: mouse TRPC4 channel activators, dose response, cell-based, HEK293 TRPC4/mu-opioid, Fluo-4 calcium (AID 434937)
# Assay type: functional
Active and inactive are the calls of the source.

Example molecules with recorded EC50:
[
  {
    "Molecule": "CCc1ccc(C(=O)c2cnc3ccc(OC)cc3c2N2CCN(CC)CC2)cc1",
    "Value observed": "5960 nM (active)"
  },
  {
    "Molecule": "COc1cc(OC)cc(C(=O)N[C@H](C(=O)OCC(=O)NC(C)c2ccccc2)C(C)C)c1 (stereo not given in full)",
    "Value observed": "6680 nM (active)"
  },
  {
    "Molecule": "CC(C)(C)c1ccc(C(=O)NC(=S)NNC(=O)c2cccs2)cc1",
    "Value observed": "1500 nM (active)"
  },
  {
    "Molecule": "CC1CC(C)CN(CCCNC(=O)c2ccc3c(c2)N(Cc2ccccc2)C(=O)c2ccccc2[S+]3[O-])C1 (stereo not given)",
    "Value observed": "841 nM (active)"
  }
]

Next molecule, EC50 to be filled in.
stdin: Request the reported EC50 associated with `COc1cccc(C(=O)N(C)CC2CCN(CCc3cccc(C(F)(F)F)c3)CC2)c1`
stdout: 596 nM (active)

----------
Here the recorded AC50 is given for each entry.
# Target or system: DNA repair protein RAD52 homolog (Homo sapiens, UniProt P43351)
# Sequence (P43351 whole entry): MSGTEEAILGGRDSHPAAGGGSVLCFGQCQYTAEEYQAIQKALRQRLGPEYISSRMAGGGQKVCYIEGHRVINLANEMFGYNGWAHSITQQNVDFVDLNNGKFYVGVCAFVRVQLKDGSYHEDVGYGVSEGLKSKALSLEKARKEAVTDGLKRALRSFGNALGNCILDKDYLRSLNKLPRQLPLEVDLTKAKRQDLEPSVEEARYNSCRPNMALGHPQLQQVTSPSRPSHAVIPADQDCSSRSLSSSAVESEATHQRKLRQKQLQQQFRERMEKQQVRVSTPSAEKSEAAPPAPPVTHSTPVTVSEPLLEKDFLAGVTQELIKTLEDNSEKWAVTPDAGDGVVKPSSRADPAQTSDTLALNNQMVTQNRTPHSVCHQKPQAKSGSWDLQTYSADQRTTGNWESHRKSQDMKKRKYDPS
# Format: functional, biochemical
Activity calls are given as the source filed them.

Some solved entries appear below for comparison.
[
  {
    "Molecule": "Cc1cc(C)c2c(c1)c1nnc(SCCN3CCCCC3)nc1n2C",
    "AC50": "6.11 µM (active)"
  },
  {
    "Molecule": "COc1cccc(OCC(O)CN2CCN(CCN3C(=O)c4cccc5cccc(c45)C3=O)CC2)c1 (centres undefined)",
    "AC50": "18.2 µM (active)"
  },
  {
    "Molecule": "CCOC(=O)c1c(C)n(-c2ccc(C)cc2)c2ccc(OCC(O)CNCCCO)cc12 (centres undefined)",
    "AC50": "6.8 µM (active)"
  }
]

Proceed to the following item.
stdin: What AC50 value was documented for this molecule, `Cc1nc(NC(=N)N)nc2c(C)cccc12` ?
stdout: 1.4 µM (active)

----------
Let's look at some compounds and their measured EC50.
# Target or system: Streptokinase A (Streptococcus pyogenes serotype M1)
# Sequence (P10520 whole entry): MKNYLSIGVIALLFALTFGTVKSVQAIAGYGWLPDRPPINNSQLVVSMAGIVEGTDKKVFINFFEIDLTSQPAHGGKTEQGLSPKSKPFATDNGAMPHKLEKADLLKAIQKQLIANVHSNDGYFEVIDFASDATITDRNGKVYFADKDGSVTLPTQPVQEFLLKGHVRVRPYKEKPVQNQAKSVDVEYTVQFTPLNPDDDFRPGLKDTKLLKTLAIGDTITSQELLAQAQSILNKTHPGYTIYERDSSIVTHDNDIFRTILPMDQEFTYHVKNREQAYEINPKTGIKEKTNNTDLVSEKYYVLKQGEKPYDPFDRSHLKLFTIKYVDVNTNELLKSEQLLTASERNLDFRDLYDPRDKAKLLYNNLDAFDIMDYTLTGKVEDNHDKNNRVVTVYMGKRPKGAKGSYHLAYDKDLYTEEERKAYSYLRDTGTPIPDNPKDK
# Assay: S. pyogenes streptokinase expression inhibitors, potency, dose response, plasminogen activation absorbance, OD405 (AID 1914);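 further: secreted streptokinase activity via plasminogen activation per viability signal from cell pellet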
# Format: functional, Streptococcus pyogenes M1 GAS
The source made the active and inactive calls.

Illustrative cases are given below, each with its answer.
[
  {
    "Compound": "Oc1c(Cl)cc(Cl)c(Cl)c1Cc1c(O)c(Cl)cc(Cl)c1Cl [HEXACHLOROPHENE]",
    "EC50": "> 150 µM (not active)"
  },
  {
    "Compound": "CC(C)CC(=O)NC(N=C(S)Nc1sc2c(c1C#N)CCCC2)C(Cl)(Cl)Cl (configuration not stated)",
    "EC50": "3.23 µM (active)"
  },
  {
    "Compound": "Cc1ccccc1Oc1nc(-c2ccccn2)nc2ccccc12",
    "EC50": "> 150 µM (not active)"
  },
  {
    "Compound": "Cc1ccc(SC/C(O)=C(\\C#N)c2nc3ccccc3s2)cc1",
    "EC50": "> 150 µM (not active)"
  },
  {
    "Compound": "Cc1nc(N2CCC(C)CC2)c2c(C)c(C(=O)Nc3ccccc3C(F)(F)F)sc2n1",
    "EC50": "6.34 µM (active)"
  }
]

stdin: What EC50 value was documented for this compound, CC(C)CCC(CCNCc1ccccn1)c1ccc(Cl)cc1 (configuration not stated) ?
stdout: > 150 µM (not active)

stdin: Tell me the measured EC50 of `CCCCCc1ccc(OCCOCC[n+]2cn(C)c3ccccc32)c(CCCCC)c1` , please.
stdout: 13.5 µM (active)

----------
A set of compounds tested on Cytochrome P450 2C9 (Homo sapiens, UniProt P11712), with measured AC50:

[
  {
    "Compound": "CC1=N/C(=C\\c2ccc([N+](=O)[O-])cc2)C(=O)N1c1ccc(Br)c(C)c1",
    "Quantity measured": "AC50",
    "Value observed": "7.94 µM (inconclusive)"
  }
]

stdin: Lab request: please report AC50 under test system Cytochrome P450 2C9 (Homo sapiens, UniProt P11712) for `CCCCNc1cc(=O)oc2ccccc12`
stdout: 6.31 µM (inconclusive)

stdin: # get_value(readout= AC50, system= Cytochrome P450 2C9 (Homo sapiens, UniProt P11712)) for `Cc1nn(C)c(Oc2cccc(Cl)c2)c1C=O`
stdout: 0.891 µM (inconclusive)

stdin: Value wanted: AC50 (Cytochrome P450 2C9 (Homo sapiens, UniProt P11712)) of entry Cc1ccc(C2(C)NC(=O)N(CC(=O)Nc3cc(C)on3)C2=O)cc1 (centres undefined)
stdout: 14.1 µM (inconclusive)
